target: TBK1 (Homo sapiens (Human)); test: TBK1 TR-FRET enzymatic assay;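 note: phosphorylation of a biotinylated Ser/Thr peptide by purified full-length recombinant TBK1, read by TR-FRET after 240 min at 25 °C, IC50 is the geometric mean of at least four runs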
Sequence (Q9UHD2 whole entry): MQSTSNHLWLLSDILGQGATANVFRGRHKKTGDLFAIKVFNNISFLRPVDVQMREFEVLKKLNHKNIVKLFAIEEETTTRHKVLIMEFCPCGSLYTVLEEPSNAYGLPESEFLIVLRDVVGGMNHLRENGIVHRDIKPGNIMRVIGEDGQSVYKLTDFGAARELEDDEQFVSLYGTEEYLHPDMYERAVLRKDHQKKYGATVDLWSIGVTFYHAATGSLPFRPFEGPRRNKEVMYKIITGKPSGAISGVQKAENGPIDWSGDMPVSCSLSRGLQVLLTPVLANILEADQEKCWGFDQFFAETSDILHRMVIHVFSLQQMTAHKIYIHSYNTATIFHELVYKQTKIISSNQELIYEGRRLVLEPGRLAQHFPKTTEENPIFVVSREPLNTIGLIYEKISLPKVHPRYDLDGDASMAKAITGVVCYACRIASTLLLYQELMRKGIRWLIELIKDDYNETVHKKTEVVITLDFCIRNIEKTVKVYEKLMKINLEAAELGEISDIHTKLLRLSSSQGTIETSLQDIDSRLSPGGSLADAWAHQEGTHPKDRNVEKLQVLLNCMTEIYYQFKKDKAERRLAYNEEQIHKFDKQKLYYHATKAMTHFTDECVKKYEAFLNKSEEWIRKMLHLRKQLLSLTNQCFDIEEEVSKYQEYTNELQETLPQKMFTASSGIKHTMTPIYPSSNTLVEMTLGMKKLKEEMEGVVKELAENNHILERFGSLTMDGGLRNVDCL
pIC50: −log10 of the molar value.
Respond with Criterion met for pIC50 values of 7 and above, Criterion not met for values below.

{"columns": ["Smiles data", "Test system", "Category"],
 "data": [
  ["N#Cc1cc(-c2ncnc(Nc3ccc(N4CCN(C5COC5)CC4)cc3)n2)ccc1N1CC(O)C1", "TBK1 (Homo sapiens (Human))", "Criterion met"],
  ["N#CCC(=O)N1CC[C@H](Oc2c(F)cc(-c3ncnc(Nc4ccc(N5CCN(C6COC6)CC5)cc4)n3)cc2C#N)[C@H](F)C1", "TBK1 (Homo sapiens (Human))", "Criterion met"],
  ["COc1cc(Nc2ncnc(-c3ccc(O[C@H]4CCN(C(=O)[C@@H](O)CO)C[C@H]4F)c(C#N)c3)n2)cnc1N1CCN(C2COC2)CC1", "TBK1 (Homo sapiens (Human))", "Criterion met"]
]}

Q: Does CC(C)(O)C(=O)N1CCC(Oc2ccc(-c3ncnc(Nc4ccc(N5CCN(C6COC6)CC5)cc4)n3)cc2C#N)CC1 have a reported pIC50 of at least 7?
Result: Criterion not met

Q: Does N#Cc1cc(-c2ncnc(Nc3ccc(N4CCN(C5COC5)CC4)cc3)n2)ccc1OC1CN(C(=O)CO)C1 have a reported pIC50 of at least 7?
Result: Criterion met

Q: Does COCC(=O)N1CC[C@H](Oc2ccc(-c3ncnc(Nc4ccc(C5CCN(C=O)CC5)c(C)c4)n3)cc2C#N)[C@H](F)C1 have a reported pIC50 of at least 7?
Result: Criterion met

###

biological target: IKKε (Homo sapiens (Human), UniProt Q14164); assay: IKKε TR-FRET enzymatic assay; assay type: biochemical; conditions: TR-FRET, 2×Km ATP; geometric mean of minimum four determinations; read-out: IKKe IC50
Sequence (Q14164 whole entry): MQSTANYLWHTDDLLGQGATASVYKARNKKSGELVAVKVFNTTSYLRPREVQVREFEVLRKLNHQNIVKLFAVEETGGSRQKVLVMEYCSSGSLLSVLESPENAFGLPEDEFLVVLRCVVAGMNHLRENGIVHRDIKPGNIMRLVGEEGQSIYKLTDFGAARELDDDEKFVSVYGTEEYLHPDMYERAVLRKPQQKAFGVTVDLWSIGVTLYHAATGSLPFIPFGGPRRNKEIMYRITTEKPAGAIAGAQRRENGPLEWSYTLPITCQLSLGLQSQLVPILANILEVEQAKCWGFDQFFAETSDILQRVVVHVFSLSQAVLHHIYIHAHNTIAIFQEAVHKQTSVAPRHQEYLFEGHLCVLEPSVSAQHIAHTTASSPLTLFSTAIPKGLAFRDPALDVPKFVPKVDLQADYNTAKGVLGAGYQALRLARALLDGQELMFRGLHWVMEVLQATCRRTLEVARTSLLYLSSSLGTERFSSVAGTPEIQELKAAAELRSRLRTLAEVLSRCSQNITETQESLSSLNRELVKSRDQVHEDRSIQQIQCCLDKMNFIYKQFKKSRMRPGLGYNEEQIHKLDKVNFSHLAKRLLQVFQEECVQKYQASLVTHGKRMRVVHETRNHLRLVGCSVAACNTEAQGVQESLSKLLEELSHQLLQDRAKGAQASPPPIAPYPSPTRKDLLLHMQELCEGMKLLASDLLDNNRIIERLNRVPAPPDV
pIC50: −log10 of the molar value. Counter-ions that a name gives are not always drawn.
Respond with 1 (yes) for pIC50 values of 7 and above, 0 (no) for values below.

{"columns": ["Compound", "Category"],
 "data": [
  ["CCOc1ccc(Nc2ncnc(-c3ccc(O[C@H]4CCN(C(=O)[C@@H]5CCC(=O)N5)C[C@H]4F)c(C#N)c3)n2)cn1 [Example 538]", "1 (yes)"],
  ["N#Cc1cc(-c2ncnc(Nc3ccc(N4CCN(C5COC5)CC4)c(F)c3)n2)ccc1O[C@H]1CCN(C(=O)[C@@H](O)CO)C[C@H]1F [Example 409]", "1 (yes)"],
  ["Cc1c[nH]c(C(=O)N2CC[C@H](Oc3ccc(-c4ncnc(Nc5ccc(N6CCN(C7COC7)CC6)cc5)n4)cc3C#N)[C@H](F)C2)n1 [Example 527]", "1 (yes)"],
  ["CC(N)C(=O)N1CC[C@H](Oc2ccc(-c3ncnc(Nc4ccc(N5CCN(C6COC6)CC5)cc4)n3)cc2C#N)[C@H](F)C1 (stereo in doubt) [Example 434]", "1 (yes)"],
  ["C[C@H](O)C(=O)N1CC[C@H](Oc2ccc(-c3ncnc(Nc4cnc5c(c4)OCCN5)n3)cc2C#N)[C@H](F)C1 [Example 516]", "1 (yes)"],
  ["CC(C)(O)Cn1cc(Nc2ncnc(-c3ccc(O[C@H]4CCN(C(=O)[C@@H](O)CO)C[C@H]4F)c(C#N)c3)n2)cn1 [Example 512]", "1 (yes)"]
]}

Q: Does N#Cc1cc(-c2ncnc(Nc3ccc(N4CCN(C5COC5)CC4)cc3)n2)ccc1NC(=O)CC(F)(F)F [Example 496] have a reported pIC50 of at least 7?
Result: 1 (yes)

Q: Does C[C@H](O)C(=O)N1CC[C@H](Oc2ccc(-c3ncnc(Nc4ccc(N5CCN(C6COC6)[C@@H](CO)C5)cc4)n3)cc2C#N)C(F)(F)C1 [Example 469] have a reported pIC50 of at least 7?
Result: 1 (yes)

Q: Does N#Cc1cc(-c2ncnc(Nc3ccc(N4CCN(C5COC5)CC4)nc3)n2)ccc1O[C@H]1CCN(C(=O)[C@@H](O)CO)C[C@H]1F [Example 510] have a reported pIC50 of at least 7?
Result: 1 (yes)

Q: Does Cc1c(Nc2ncnc(-c3ccc(O[C@H]4CCN(C(=O)[C@H](C)O)C[C@H]4F)c(C#N)c3)n2)cnn1C [Example 566] have a reported pIC50 of at least 7?
Result: 1 (yes)

Q: Does Cn1ccc(C(=O)N2CCC(COc3ccc(-c4ncnc(Nc5ccc(N6CCN(C7COC7)CC6)cc5)n4)cc3C#N)CC2)cc1=O [Example 593] have a reported pIC50 of at least 7?
Result: 0 (no)

Q: Does N#Cc1cc(-c2ncnc(Nc3cnn(C(F)F)c3)n2)ccc1O[C@H]1CCNC[C@H]1F [Example 453] have a reported pIC50 of at least 7?
Result: 0 (no)

Q: Does CS(=O)(=O)c1ccc(-c2ncnc(Nc3ccc(N4CCN(C5COC5)CC4)cc3)n2)cc1 [Example 484, trifluoroacetic acid salt] have a reported pIC50 of at least 7?
Result: 0 (no)

Q: Does N#Cc1cc(-c2ncnc(Nc3ccc(N4CCN(C5COC5)CC4)cc3)n2)ccc1O[C@H]1CCN(C(=O)C2(C#N)CC2)C[C@H]1F [Example 587] have a reported pIC50 of at least 7?
Result: 1 (yes)

Q: Does CC1(C)CN(C(=O)CC#N)C[C@@H](F)[C@H]1Oc1ccc(-c2ncnc(Nc3ccc(N4CCN(C5COC5)CC4)cc3)n2)cc1C#N [Example 450] have a reported pIC50 of at least 7?
Result: 1 (yes)

Q: Does C[C@H](O)CN1CCN(c2ccc(Nc3ncnc(-c4ccc(O[C@H]5CCN(C(=O)[C@H](C)O)C[C@H]5F)c(C#N)c4)n3)cc2)CC1 [Example 573] have a reported pIC50 of at least 7?
Result: 1 (yes)

Q: Does COc1cc(Nc2ncnc(-c3ccc(O[C@H]4CCN(C(=O)[C@@H](O)CO)CC4(F)F)c(C#N)c3)n2)ccn1 [Example 479] have a reported pIC50 of at least 7?
Result: 1 (yes)

Q: Does CS(=N)(=O)c1ccc(Nc2ncnc(-c3ccc(O[C@H]4CCN(C=O)CC4(F)F)c(C#N)c3)n2)cc1 (stereo partly shown) [Example 482] have a reported pIC50 of at least 7?
Result: 1 (yes)

Q: Does N#Cc1cc(-c2ncnc(Nc3ccc(N4CCN(C5COC5)CC4)cc3)n2)ccc1O[C@H]1CCN(C(=O)[C@@H]2C[C@@H](O)CN2)C[C@H]1F [Example 589] have a reported pIC50 of at least 7?
Result: 1 (yes)
